Below: a set of entries, each annotated with reported speed of sound.
Experimental Conditions: 303.15 K; 92.3 kPa; Liquid; Frequency=3 MHz; Single path-length method

Compound | speed of sound / m/s
OCCOCCO [diethylene glycol] | 1567.2
CCO [ethanol] | 1126.4
OCCOCCOCCO [triethylene glycol] | 1596.6
OCCO [1,2-ethanediol] | 1642.9
OCC(O)CO [glycerol] | 1899.6

---

Experimental Conditions: 293.15 K; 92.3 kPa; Liquid; Vibrating tube method
± gives the expanded uncertainty stated by the source.
Below: a set of entries, each annotated with reported mass density.
Endpoint Label: mass density

Molecule | Reported
O [water] | 998.429 ± 3 kg/m3
OCC(O)CO [glycerol] | 1260.73 ± 3 kg/m3
CCO [ethanol] | 789.547 ± 3 kg/m3
OCCOCCO [diethylene glycol] | 1116.73 ± 3 kg/m3
OCCOCCOCCO [triethylene glycol] | 1123.48 ± 3 kg/m3
OCCO [1,2-ethanediol] | 1113.72 ± 3 kg/m3

// provenance: the NIST ThermoML archive (doi:10.1016/j.jct.2018.02.022)
